experiment: Solubility in water, tested as a HCl salt; format: physicochemical; details: read-out: S
Observable: solubility (µg/mL)
Number in µg/mL, nothing else.

## Input Consider the molecule CNC1CC(=O)OC1C(O)C(=O)NC(CC(C)C)C1Cc2cccc(O)c2C(=O)O1 (stereo unspecified) and give its measured solubility.
## Output 1500

## Input So what's the measured solubility for this one? CCCCCCNC1CC(=O)OC1C(O)C(=O)NC(CC(C)C)C1Cc2cccc(O)c2C(=O)O1 (stereo unspecified)
## Output 1600

## Input Data request, read-out solubility, for CCCCCNC1CC(=O)OC1C(O)C(=O)NC(CC(C)C)C1Cc2cccc(O)c2C(=O)O1 (stereo unspecified)
## Output 7300

Next item in the queue.
## Input Looking for the measured solubility of CCCCNC1CC(=O)OC1C(O)C(=O)NC(CC(C)C)C1Cc2cccc(O)c2C(=O)O1 (stereo unspecified) , can you help?
## Output 100000

---

tested on: Rattus norvegicus; experiment: % recovery of the compound, compound 1 and compound 6a from whole blood of 7 wistar rats after an oral dose of the compound; format: ADME, organism-based; settings: in vivo
Measured Recovery accompanies every entry in the list below.
Could you write the number and then its unit?

## Input State its Recovery on Rattus norvegicus: CCCCCNC1CC(=O)OC1C(O)C(=O)NC(CC(C)C)C1Cc2cccc(O)c2C(=O)O1 (stereo not given)
## Output 50%

## Input Lookup: Recovery / Rattus norvegicus / CCCCNC1CC(=O)OC1C(O)C(=O)NC(CC(C)C)C1Cc2cccc(O)c2C(=O)O1 (stereo not given)
## Output 30%

## Input So what Recovery did CCCCCCNC1CC(=O)OC1C(O)C(=O)NC(CC(C)C)C1Cc2cccc(O)c2C(=O)O1 (stereo not given) get with Rattus norvegicus?
## Output 80%

More entries:
## Input For Rattus norvegicus, provide Recovery of CCCNC1CC(=O)OC1C(O)C(=O)NC(CC(C)C)C1Cc2cccc(O)c2C(=O)O1 (stereo not given) please.
## Output 40%

## Input What Recovery appears in the records for this compound with Rattus norvegicus? CCNC1CC(=O)OC1C(O)C(=O)NC(CC(C)C)C1Cc2cccc(O)c2C(=O)O1 (stereo not given)
## Output 20%

---

assay: Solubility in phosphate buffer, tested as a HCl salt; assay type: physicochemical
Each item that follows carries a reported solubility.
Numeric answer only, unit µg/mL assumed.

Here is how some molecules turned out for solubility.
## Input Which measured solubility value corresponds to CNC1CC(=O)OC1C(O)C(=O)NC(CC(C)C)C1Cc2cccc(O)c2C(=O)O1 (stereo unspecified) ?
## Output 990

## Input Requested field: solubility. Item: CCCCCCNC1CC(=O)OC1C(O)C(=O)NC(CC(C)C)C1Cc2cccc(O)c2C(=O)O1 (stereo unspecified)
## Output 5

## Input solubility for CCCCCNC1CC(=O)OC1C(O)C(=O)NC(CC(C)C)C1Cc2cccc(O)c2C(=O)O1 (stereo unspecified) ?
## Output 330

## Input Fill in the blank: the reported solubility of CCCCNC1CC(=O)OC1C(O)C(=O)NC(CC(C)C)C1Cc2cccc(O)c2C(=O)O1 (stereo unspecified) is ____.
## Output 370

## Input What does the data say about its solubility? Entry: CCCNC1CC(=O)OC1C(O)C(=O)NC(CC(C)C)C1Cc2cccc(O)c2C(=O)O1 (stereo unspecified)
## Output 1600

Now take the following molecule into account.
## Input // query solubility value for entry CCNC1CC(=O)OC1C(O)C(=O)NC(CC(C)C)C1Cc2cccc(O)c2C(=O)O1 (stereo unspecified)
## Output 11000

---

system: Rattus norvegicus; experiment: Gastroprotective activity as % protection against stress ulcers in 5 rats after an oral dose of 100 mg/kg; type: functional
Observable: Protection (%)
The response must be a number in % with no trailing unit.

Examples with their reported Protection follow.
## Input Which Protection value belongs to CNC1CC(=O)OC1C(O)C(=O)NC(CC(C)C)C1Cc2cccc(O)c2C(=O)O1 (stereo not drawn) ?
## Output 66

## Input Which Protection value is on record for CCCNC1CC(=O)OC1C(O)C(=O)NC(CC(C)C)C1Cc2cccc(O)c2C(=O)O1 (stereo not drawn) ?
## Output 100

## Input Which Protection value is on record for CCCCNC1CC(=O)OC1C(O)C(=O)NC(CC(C)C)C1Cc2cccc(O)c2C(=O)O1 (stereo not drawn) ?
## Output 89

## Input # query: Protection of entry CC(C)C[C@H](NC(=O)C(O)C1OC(=O)CC1N)[C@@H]1Cc2cccc(O)c2C(=O)O1.Cl (stereo partly drawn)
## Output 78

More entries:
## Input Fill blank: measured Protection of the compound CCNC1CC(=O)OC1C(O)C(=O)NC(CC(C)C)C1Cc2cccc(O)c2C(=O)O1 (stereo not drawn) is ____.
## Output 89

## Input # lookup: Protection of CCCCCCNC1CC(=O)OC1C(O)C(=O)NC(CC(C)C)C1Cc2cccc(O)c2C(=O)O1 (stereo not drawn)
## Output 44

## Input Which Protection reading was recorded for the compound CC(C)C[C@H](NC(=O)[C@@H](O)[C@@H](O)[C@@H](N)CC(=O)O)[C@@H]1Cc2cccc(O)c2C(=O)O1 ?
## Output 17

## Input Can you look up the measured Protection of CCCCCNC1CC(=O)OC1C(O)C(=O)NC(CC(C)C)C1Cc2cccc(O)c2C(=O)O1 (stereo not drawn) for me?
## Output 56

---

experiment: Lipid solubility measured as chloroform-water partition coefficient; type: physicochemical
Observable: P
The reply should be a number, written without any unit.

Some solved entries appear below for comparison.
## Input Sample CCCCCNC1CC(=O)OC1C(O)C(=O)NC(CC(C)C)C1Cc2cccc(O)c2C(=O)O1 (centres undefined) — what was its P?
## Output 1900

## Input Field request: P | item: CNC1CC(=O)OC1C(O)C(=O)NC(CC(C)C)C1Cc2cccc(O)c2C(=O)O1 (centres undefined)
## Output 3750

Could you now consider this next compound?
## Input Dear colleague, I am looking for the recorded P of the following compound: CCCNC1CC(=O)OC1C(O)C(=O)NC(CC(C)C)C1Cc2cccc(O)c2C(=O)O1 (centres undefined)
## Output 260

// provenance: ChEMBL document CHEMBL1123133
